Each recorded value in this set is attributed to patent US4032659A.

Exercise: for every item that follows, state its recorded No. animals surviving after 6 days.
tested on: Influenza Ann Arbor virus; test: Chemoprophylaxis of Influenza Ann Arbor (A1) virus infection in mice; format: in vivo, mouse; details: oral; total dose 3 μg
Counter-ions that a name gives are not always drawn.
Give bare numbers.

NC(N)=NN=Cc1c(Cl)cccc1Cl
2
CCC(CC)=NNC(N)=S [3-pentanone, thiosemicarbazone]
6
CCCC(C)=NNC(N)=S [2-pentanone, thiosemicarbazone]
1
CN(C)N [1,1-dimethylhydrazine]
2
CC(C)=NNC(N)=S [acetone, thiosemicarbazone]
5

Parameters: items (list). Returns: No. animals surviving after 6 days for each item.
1. CNNC [1,2-dimethylhydrazine, dihydrochloride]
2. CNN [Methylhydrazine, methylhydrazine]

Result:
3
3

---

test system: Influenza Ann Arbor virus; experiment: Chemoprophylaxis of Influenza Ann Arbor (A1) virus infection in mice; type: in vivo, mouse; settings: oral; total dose 3 ng
Counter-ions that a name gives are not always drawn.
Exercise: for every item that follows, state its recorded Survivors.

Answered examples (8):
CCCC(C)=NNC(N)=S
0
NC(N)=NN=Cc1c(Cl)cccc1Cl
0
CCOC(=O)CC(C)=NNC(N)=S
0
CCC(CC)=NNC(N)=S
0
CN(C)N [1,1-dimethylhydrazine]
1
CNNC [1,2-dimethylhydrazine, dihydrochloride]
0
NC(N)=S
1
CC(C)=NNC(N)=S
0

Parameters: items (list). Returns: Survivors for each item.
1. NC(=S)NN=C1Cc2ccccc2C1
2. CNN [Methylhydrazine, methylhydrazine]
3. CCC(C)=NNC(=N)N.O=[N+]([O-])O
4. C=CCNC(=S)NN=C1Cc2ccccc2C1

Result:
0
1
0
0

Parameters: items (list). Returns: Survivors for each item.
1. Cc1ccccc1NC(=S)NN=C1CCCC1
2. N=C(N)NN

Result:
0
1

---

Exercise: for every item that follows, state its recorded No. animals surviving after 7 days.
test system: Influenza Ann Arbor virus; assay: Chemoprophylaxis of Influenza Ann Arbor (A1) virus infection in mice; type: in vivo, mouse; conditions: oral; total dose 3 μg
Give bare numbers.

C=CCNC(=S)NN=C1Cc2ccccc2C1 [2-Indanone, 4-allylthiosemicarbazone]
2

Parameters: items (list). Returns: No. animals surviving after 7 days for each item.
1. N=C(N)NN [aminoguanidine]
2. NC(N)=S [Thiourea]
3. CCC(C)=NNC(=N)N.O=[N+]([O-])O

Result:
1. 8
2. 7
3. 0

---

Exercise: for every item that follows, state its recorded Survivors.
tested on: Influenza Ann Arbor virus; test: Chemoprophylaxis of Influenza Ann Arbor (A1) virus infection in mice; assay type: in vivo, mouse; details: oral; total dose 3 mg
Where a name gives a salt, the structure may show the parent alone.
One number for each entry.

Answered examples (3):
CCOC(=O)CC(C)=NNC(N)=S
0
Cc1ccccc1NC(=S)NN=C1CCCC1
0
CN(C)N [1,1-dimethylhydrazine]
0

Parameters: items (list). Returns: Survivors for each item.
1. NC(N)=S
2. C=CCNC(=S)NN=C1Cc2ccccc2C1
3. CNNC [1,2-dimethylhydrazine, dihydrochloride]

Result:
[0, 1, 0]

---

tested on: Influenza Ann Arbor virus; test: Chemoprophylaxis of Influenza Ann Arbor (A1) virus infection in mice; format: in vivo, mouse; settings: oral; total dose 30 pg
Where a name gives a salt, the structure may show the parent alone.
readoutName: Survivors
Numbers only.

Answered examples (5):
Cc1ccccc1NC(=S)NN=C1CCCC1
0
CNN [Methylhydrazine, methylhydrazine]
1
NC(N)=S [Thiourea]
0
CNNC [1,2-dimethylhydrazine, dihydrochloride]
1
CC(C)=NNC(N)=S [acetone, thiosemicarbazone]
1

We now examine a further compound.
Value of measured Survivors for the entry NC(=S)NN=C1Cc2ccccc2C1 [2-indanone, thiosemicarbazone] : 1
